The reported measurements were obtained from patent US8785460B2.

Entries and their melting point

Field: example entries. Status: answers known.
* OC(c1ccc(Cl)c2nc3n(c12)CCCN3c1ccc(Cl)cc1Cl)(C1CC1)C1CC1 | 184 to 186 °C
* CCN(CC)c1cccc2nc3n(c12)CCC(=O)N3c1ccc(Cl)cc1Cl | 113 to 114 °C
* CCC(O)c1cccc2nc3n(c12)CCCCN3c1ccc(Cl)cc1Cl (stereo not shown) | 241 to 243 °C

Report melting point for `CCC(CC)c1ccc(Cl)c2nc3n(c12)CCCCN3c1ccc(C(=O)NC)cc1C` please.
127 to 128 °C

Now give it for CCC(CCOC)c1ccc(Cl)c2nc3n(c12)CCCN3c1ccc(Cl)cc1Cl (stereo not shown) too.
144 to 146 °C

Now give it for `CCN(CC)c1cccc2nc3n(c12)CC(F)(F)CN3c1ccc(Cl)cc1Cl` too.
125 to 127 °C

Now give it for `CCC(CC)c1ccc(Cl)c2nc3n(c12)CCCCN3c1ncc(C(C)=O)cc1C` too.
142 °C

Now give it for CCCC(O)c1ccc(Cl)c2nc3n(c12)CCCN3c1ccc(Cl)cc1Cl (stereo not shown) too.
220 to 221 °C

Now give it for CCN(CC)c1cccc2nc3n(c12)CC(CC(=O)OC)N3c1ccc(Cl)cc1Cl (stereo not shown) too.
137 to 138 °C

Now give it for CCN(CC)c1cccc2nc3n(c12)CCCNC3c1ccc(Cl)cc1Cl (stereo not shown) too.
186 to 188 °C

* * *

Observable: melting point

* CCC(CC)c1ccc(Cl)c2nc3n(c12)CC(C)N3c1cnc(N(C)C)cc1C (centres unmarked) | 204 to 206 °C
* COc1nc(C)c(N2CCCn3c2nc2c(OC)ccc(C(OC(F)F)C(F)(F)F)c23)c(C)n1 (centres unmarked) | 201 to 203 °C
* CCC(OC)c1ccc(Cl)c2nc3n(c12)CCCN3c1ccc(Cl)cc1C(F)(F)F (centres unmarked) | 202 to 203 °C
* CCC(OC(=O)CO)c1ccc(Cl)c2nc3n(c12)CCCN3c1ccc(Cl)cc1Cl (centres unmarked) | 191 to 193 °C
* Cc1nc(N2CCCC2)ccc1N1CCCn2c1nc1c(Cl)ccc(C(OC(F)F)C(F)(F)F)c12 (centres unmarked) | 233 to 236 °C
* CCN(CC)c1ccc(F)c2nc3n(c12)CCCN3c1ccc(Cl)cc1Cl | 170 to 172 °C
* CCC(OCC(F)(F)F)c1ccc(Cl)c2nc3n(c12)CCCN3c1ccc(OC)nc1C (centres unmarked) | 124 to 126 °C

// switching to the query compound
Report melting point for `CCN(CC)c1cccc2nc3n(c12)C=CCCN3c1ccc(Cl)cc1Cl` please.
105 to 106 °C

* * *

Observable: melting point

Field: example entries. Status: answers known.
• CCC(OCC(F)(F)F)c1ccc(Cl)c2nc3n(c12)CCCN3c1ccc(N(C)C)nc1C (centres unmarked) = 144 to 146 °C
• COc1nc(C)c(N2CCCn3c2nc2c(Cl)ccc(C(NC(=O)C(F)F)C(F)(F)F)c23)c(C)n1 (centres unmarked) = 155 to 156 °C
• COc1ccc(N2CCCn3c2nc2c(Cl)ccc(C(OCC(F)(F)F)C4CC4)c23)c(C)c1 (centres unmarked) = 157 to 158 °C
• CCC(O)c1ccc(Cl)c2nc3n(c12)CCCN3c1c(Cl)cc(Cl)cc1Cl (centres unmarked) = 213 to 214 °C
• CCN(CC)c1cccc2nc3n(c12)CCCCCN3c1ccc(Cl)cc1Cl = 120 to 121 °C

Report melting point for Cc1cc(C#N)ccc1N1CCCn2c1nc1c(Cl)ccc(C(OCC(F)(F)F)C3CC3)c12 (centres unmarked) please.
207 to 209 °C

Now give it for `CCC(CC)c1ccc(Cl)c2nc3n(c12)CCN3c1ccc(Cl)cc1Br` too.
169 to 171 °C

Now give it for CCC(CO)c1ccc(Cl)c2nc3n(c12)CCCN3c1ccc(Cl)cc1Cl (centres unmarked) too.
162 to 164 °C

* * *

Entries and their melting point

Report melting point for Cc1nc(N2CCOCC2)ccc1N1CCCn2c1nc1c(Cl)ccc(C(OC(F)F)C(F)(F)F)c12 (stereo not drawn) please.
191 to 193 °C

Now give it for `CCC(CC)c1ccc(Cl)c2nc3n(c12)CCCCN3c1ccc(OC(F)(F)F)cc1Br` too.
114 to 117 °C

Now give it for CCC(OCC(F)(F)F)c1ccc(Cl)c2nc3n(c12)CCCN3c1ccc(Cl)cc1Cl (stereo not drawn) too.
146 to 148 °C

Now give it for `CCC(CC)c1ccc(Cl)c2nc3n(c12)CCCCN3c1ncc(N(C)C)cc1C` too.
188 to 190 °C

Now give it for `Clc1ccc(N2CCCn3c2nc2c(Cl)ccc(N(C4CC4)C4CC4)c23)c(Cl)c1` too.
211 to 213 °C

Now give it for `CCCC(O)(CCC)c1ccc(Cl)c2nc3n(c12)CCCN3c1c(C)cc(Cl)cc1Cl` too.
176 to 178 °C

Now give it for `CCC(CC)c1ccc(Cl)c2nc3n(c12)CCCCN3c1c(C)cc(Cl)cc1OC` too.
196 to 198 °C

Now give it for `CCN(CC)c1cc(F)cc2nc3n(c12)CCCN3c1ccc(Cl)cc1Cl` too.
142 to 145 °C

Now give it for CCC(O)c1ccc(Cl)c2nc3n(c12)CCCN3c1ccc(Cl)cc1C(F)(F)F (stereo not drawn) too.
220 to 222 °C

Now give it for `CCC(O)(CC)c1ccc(Cl)c2nc3n(c12)CCCN3c1ccc(Cl)cc1Cl` too.
199 to 201 °C

* * *

Entries and their melting point

Field: example entries. Status: answers known.
• CCC(NC(=O)OC)c1ccc(Cl)c2nc3n(c12)CCCN3c1c(Cl)cc(Cl)cc1Cl (centres unmarked) [Example 410] = 231 to 233 °C
• CCC(CC)c1ccc(Cl)c2nc3n(c12)CCCN3c1cnc(N(C)C)cc1C [Example 336] = 228 to 230 °C
• CCO/N=C(/CC)c1ccc(Cl)c2nc3n(c12)CCCN3c1ccc(Cl)cc1Cl [Example 124] = 140 to 141 °C
• CCS(=O)(=O)Cc1ccc(Cl)c2nc3n(c12)CCCN3c1ccc(Cl)cc1Cl [Example 461] = 300 to 302 °C
• CCC(OC(C)=O)c1ccc(Cl)c2nc3n(c12)CCCN3c1ccc(C(C)(C)O)cc1Cl (centres unmarked) [Example 252] = 184 to 186 °C

Report melting point for CCC(F)c1ccc(Cl)c2nc3n(c12)CCCN3c1ccc(Cl)cc1Cl (centres unmarked) [Example 304] please.
172 to 174 °C

Now give it for CCC(=O)OC(CC)c1ccc(Cl)c2nc3n(c12)CCCN3c1ccc(Cl)cc1Cl (centres unmarked) [Example 241] too.
133 to 135 °C

Now give it for COC(c1ccc(Cl)c2nc3n(c12)CCCN3c1ccc(Cl)cc1Cl)C(F)(F)F (centres unmarked) [Example 309] too.
161 to 163 °C

* * *

Entries and their melting point

Field: example entries. Status: answers known.
- CCC(CC)c1ccc(Cl)c2nc3n(c12)CCCCN3c1ccc(OC)nc1OC: 85 to 88 °C
- CCN(CC)c1cccc2nc3n(c12)CC(=O)CCN3c1ccc(Cl)cc1Cl: 169 to 170 °C
- CCC(OC(C)=O)c1ccc(Cl)c2nc3n(c12)CCCN3c1ccc(C(C)=O)cc1Cl (centres unmarked): 183 to 186 °C
- CCC(OC(=O)COC)c1ccc(Cl)c2nc3n(c12)CCCN3c1ccc(Cl)cc1Cl (centres unmarked): 156 to 158 °C

Report melting point for `COc1nc(C)c(N2CCCn3c2nc2c(Cl)ccc(C(O)(C4CC4)C4CC4)c23)c(C)n1` please.
220 to 221 °C

* * *

Entries and their melting point

Field: example entries. Status: answers known.
- COc1nc(C)c(N2CCCn3c2nc2c(Br)ccc(C(OC(F)F)C(F)(F)F)c23)c(C)n1 (stereo not drawn) [Example 519]: 211 to 213 °C
- CCC(CC)c1ccc(Cl)c2nc3n(c12)CCCCN3c1cnc(C(N)=O)cc1C [Example 61]: 267 to 269 °C
- CC/C(=N/OC)c1ccc(Cl)c2nc3n(c12)CCCN3c1ccc(Cl)cc1Cl [Example 122]: 144 to 145 °C

Report melting point for CCC(C)Nc1cccc2nc3n(c12)CCCN3c1ccc(Cl)cc1Cl (stereo not drawn) [Example 207] please.
180 to 181 °C

Now give it for COC(c1ccc(Cl)c2nc3n(c12)CCCN3c1ccc(Cl)cc1Cl)C1CC1 (stereo not drawn) [Example 117] too.
138 to 139 °C

Now give it for CCC(CC)c1ccc(Cl)c2nc3n(c12)CCCCN3c1ccc(C(N)=O)cc1C [Example 48] too.
185 to 186 °C
